For each entry below, report its pIC50 value.
system: Hs578T; test: Matrigel outgrowth assay/branching assay; type: cell-based; conditions: Homo sapiens, Hs-578T; HS578T cell line; Table Ib; read-out: Total branching inhibition in Matrigel HS578T
pIC50: −log10 of the molar value.

COc1cc2c(Oc3ccc(NS(=O)(=O)c4ccc(C)s4)cc3F)ccnc2cc1OCCCN1CCCC(C)C1 (centres unmarked) [Example 62]: 4.60 to 5.00
COc1cc2c(Oc3ccc(NS(=O)(=O)c4c(Cl)cccc4Cl)cc3C)ccnc2cc1OCCCN1CCC(C)CC1 [Example 176]: ≥ 5.00
COc1cc2c(Oc3cccc(NS(=O)(=O)c4csc5ccccc45)c3)ccnc2cc1OCCCN1CCN(C)CC1 [Example 136]: ≥ 5.00

Give pIC50 for each listed item.
1. COc1cc2c(Oc3cccc(NS(=O)(=O)c4cc(Cl)sc4Cl)c3)ccnc2cc1OCCCN1CCN(C)CC1 [Example 134]
2. COc1ccc2nccc(Oc3ccc(NS(=O)(=O)c4c(F)cccc4F)cc3F)c2c1 [Example 200]
3. COc1cc2c(Oc3ccc(NS(=O)(=O)c4ccccc4OC)cc3F)ccnc2cc1OCCCN1CCN(C)CC1 [Example 33]
4. COc1cc2c(Oc3ccc(NS(=O)(=O)c4sc(NC(C)=O)nc4C)cc3F)ccnc2cc1OCCCN(C)C [Example 183]
5. COc1cc2c(Oc3ccc(NS(=O)(=O)c4ccn(C)n4)cc3F)ccnc2cc1OCCCN1CCN(C)CC1 [Example 166]
6. COc1cc2c(Oc3ccc(NS(=O)(=O)c4cc(Cl)ccc4Cl)cc3C)ccnc2cc1OCCCN1CCC(C)CC1 [Example 175]
7. COc1cc2c(Oc3ccc(NS(=O)(=O)c4c(Cl)cccc4Cl)cc3F)ccnc2cc1OCCCN1CCCC(C)C1 (centres unmarked) [Example 51]
8. COC(=O)c1sccc1S(=O)(=O)Nc1ccc(Oc2ccnc3cc(OCCCN4CCCC(C)C4)c(OC)cc23)c(F)c1 (centres unmarked) [Example 66]

Out:
1. ≥ 5.00
2. 4.60 to 5.00
3. ≥ 5.00
4. 4.60 to 5.00
5. 4.60 to 5.00
6. ≥ 5.00
7. ≥ 5.00
8. 4.60 to 5.00

Give pIC50 for each listed item.
1. COc1cc2c(Oc3ccc(NS(=O)(=O)c4ccccc4[N+](=O)[O-])cc3F)ccnc2cc1OCCCN1CCN(C)CC1 [Example 21]
2. COc1cc2c(Oc3cccc(NS(=O)(=O)c4c(F)cccc4F)c3)ccnc2cc1OCCCN1CCN(C)CC1 [Example 125]
3. COc1cc2c(Oc3ccc(NS(=O)(=O)c4ccccc4OC(F)(F)F)cc3F)ccnc2cc1OCCCN1CCCCC1C (centres unmarked) [Example 153]
4. COc1cc2c(Oc3ccc(NS(=O)(=O)c4ccc(Cl)s4)cc3F)ccnc2cc1OCCCN1CCCC(C)C1 (centres unmarked) [Example 63]

Out:
1. ≥ 5.00
2. 4.60 to 5.00
3. 4.60 to 5.00
4. ≥ 5.00

###

PARAMETER: melting point

Example entries and their recorded answers appear below.
COc1cc2c(Oc3ccc(Cl)c(NS(=O)(=O)c4cc(Cl)ccc4Cl)c3)ccnc2cc1OCCCN1CCC(C)CC1: 223 to 224 °C
COc1cc2c(Oc3ccc(NS(=O)(=O)c4ccc(F)c(Cl)c4)cc3F)ccnc2cc1OCCCN1CCCC(C)C1 (stereo not shown): 124 to 126 °C
COc1cc2c(Oc3cccc(NS(=O)(=O)/C=C/c4ccccc4)c3)ccnc2cc1OCCCN1CCN(C)CC1: 85 to 87 °C

Next molecule, please.
In: Give the value of melting point reported for the following: COc1cc2c(Oc3ccc(NS(=O)(=O)c4cccs4)cc3F)ccnc2cc1OCCCN(C)C
Out: 186 to 188 °C

###

PARAMETER: melting point

Example entries and their recorded answers appear below.
COc1cc2c(Oc3ccc(NS(=O)(=O)c4ccccc4C(F)(F)F)cc3Cl)ccnc2cc1OCCCN1CCN(C)CC1: 103 to 105 °C
COc1cc2c(Oc3ccc(NS(=O)(=O)c4c(Cl)cccc4Cl)cc3F)ccnc2cc1OCCCN1CCN(C)CC1: 113 to 116 °C
CCOC(=O)COc1cc2nccc(Oc3ccc(NS(=O)(=O)c4ccccc4F)cc3F)c2cc1OC: 87 to 89 °C
COc1cc2c(Oc3ccc(NS(=O)(=O)c4cc(Cl)cc(Cl)c4OC)cc3F)ccnc2cc1OCCCN1CCN(C)CC1: 183 to 185 °C
COc1ccc2nccc(Oc3ccc(NS(=O)(=O)c4cc(Cl)ccc4Cl)cc3F)c2c1: 253 to 255 °C
COc1cc2c(Oc3ccc(NS(=O)(=O)c4cc(Cl)cc(Cl)c4)cc3F)ccnc2cc1OCCCN1CCCC(C)C1 (stereo not shown): 126 to 128 °C

Next molecule, please.
In: Give the value of melting point reported for the following: COc1cc2c(Oc3cccc(NS(=O)(=O)c4c[nH]c(C)n4)c3)ccnc2cc1OCCCN1CCN(C)CC1
Out: 118 to 120 °C

###

For each entry below, report its viability at 10 µM value.
system: viable cells in culture; experiment: Cell viability assay at 10 μM (CellTiter-Glo, Table VII); format: cell-based; details: RKO; compound 10 μM; 72 h; read-out: percentage (%) of viable cells RKO;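 also: graded A 0-20%; B 21-40%; C 41-60%; D over 60% viable cells relative to DMSO control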

COc1cc2c(Oc3c(Cl)cc(NS(=O)(=O)c4c(F)cccc4F)cc3Cl)ccnc2cc1OCCCN1CCN(C)CC1: 41 to 60%
COc1cc2c(Oc3ccc(NS(=O)(=O)c4ccccc4Cl)cc3F)ccnc2cc1OCCCN1CCCC(C)C1 (stereo not shown): 0 to 20%
COc1cc2c(Oc3ccc(NS(=O)(=O)c4c(F)cccc4F)cc3F)ccnc2cc1OCCN1CCOCC1: 41 to 60%
COc1cc2c(Oc3ccc(NS(=O)(=O)c4cccc(-c5ccccc5)c4)cc3F)ccnc2cc1OCCCN1CCN(C)CC1: 0 to 20%
COc1cc2c(Oc3ccc(NS(=O)(=O)c4ccccc4C(F)(F)F)cc3F)ccnc2cc1OCCCNC1CCOCC1: 0 to 20%

Give viability at 10 µM for each listed item.
1. COc1cc2c(Oc3ccc(NS(=O)(=O)c4ccccc4C(F)(F)F)cc3Cl)ccnc2cc1OCCCN1CCN(C)CC1
2. COc1cc2c(Oc3ccc(NS(=O)(=O)c4ccccc4OC)cc3F)ccnc2cc1OCCCN1CCN(C)CC1

Out:
["41 to 60%", "0 to 20%"]

###

For each entry below, report its IC50 value.
tested on: U118; experiment: Apoptosis assay (Cellomics, nucleus condensation); type: cell-based; settings: Table III, read-out: Apoptosis induction in U118

COc1cc2c(Oc3ccc(NS(=O)(=O)c4ccccc4[N+](=O)[O-])cc3F)ccnc2cc1OCCCN1CCCCC1: 12.5 to 50 µM
COc1cc2c(Oc3ccc(NS(=O)(=O)c4ccccc4[N+](=O)[O-])cc3F)ccnc2cc1OCCCN1CCN(C)CC1: ≤ 12.5 µM
COc1cc2c(Oc3ccc(NS(=O)(=O)c4ccccc4C(F)(F)F)cc3F)ccnc2cc1OCCCN1CCCCC1C (centres unmarked): 12.5 to 50 µM
COc1cc2c(Oc3cccc(NS(=O)(=O)c4ccccc4C(F)(F)F)c3)ccnc2cc1OCCCN1CCN(C)CC1: ≤ 12.5 µM
CN1CCN(CCCOc2ccc3nccc(Oc4ccc(NS(=O)(=O)c5ccccc5C(F)(F)F)cc4F)c3c2)CC1: 12.5 to 50 µM
COc1cc2c(Oc3ccc(NS(=O)(=O)c4cc(Cl)cc(Cl)c4OC)cc3F)ccnc2cc1OCCCN1CCCC(C)C1 (centres unmarked): ≤ 12.5 µM

Give IC50 for each listed item.
1. COc1cc2c(Oc3ccc(NS(=O)(=O)c4ccc(F)c(C#N)c4)cc3F)ccnc2cc1OCCCN1CCCC(C)C1 (centres unmarked)
2. COc1cc2c(Oc3ccc(NS(=O)(=O)c4cc(Cl)cc(Cl)c4OC)cc3F)ccnc2cc1OCCCN1CCCCC1
3. COc1cc2c(Oc3ccc(NS(=O)(=O)c4ccc(F)c(F)c4F)cc3F)ccnc2cc1OCCCN1CCN(C)CC1
4. COc1cc2c(Oc3ccc(NS(=O)(=O)c4cc(F)ccc4F)cc3F)ccnc2cc1OCCCN1CCCCC1
5. COc1cc2c(Oc3ccc(NS(=O)(=O)c4cc(F)ccc4F)cc3F)ccnc2cc1OCCCCN1CCOCC1
6. COc1cc2c(Oc3ccc(NS(=O)(=O)c4cc(C)ccc4F)cc3F)ccnc2cc1OCCCN1CCCC(C)C1 (centres unmarked)

Out:
1. ≤ 12.5 µM
2. ≤ 12.5 µM
3. 12.5 to 50 µM
4. ≤ 12.5 µM
5. ≤ 12.5 µM
6. 12.5 to 50 µM

Give IC50 for each listed item.
1. COc1cc2c(Oc3ccc(NS(=O)(=O)c4ccc(Cl)cc4F)cc3F)ccnc2cc1OCCCN1CCN(C)CC1
2. COc1cc2c(Oc3ccc(NS(=O)(=O)c4ccccc4C(F)(F)F)cc3F)ccnc2cc1OCC(=O)N(C)C

Out:
≤ 12.5 µM
≤ 12.5 µM
